subjectOfTest: T1, C-terminally His-tagged hEphA2-FN2 (Thr437-Asn534+His tag) (human, UniProt P29317 437-534)
T1 construct: SPR analyte; also called FN2 domain of hEphA2
experimentSummary: SPR Biacore T200, 25 C, mIgG2a captured by anti-mouse Fc, FN2-His as analyte, steady-state fit, monovalent
experimentalEndpoint: pKd
pKd is defined as minus the log10 of a concentration measured in mol/L.

// AB-010699 (mIgG2a format) (antibody, V domains shown, Tested with mouse IgG2a constant regions (mIgG2a format)) VH: QVQLQQWGAGLLKPSETLSLTCAVYGGSFSGYYWSWIRQPPGKGLEWIGEINHRGSINYNNYNPSLKSRVTISVDTSKNQFSLKLSSVTAADTAVYYCAKPLRPHCINGVCYSGDAFDIWGQGTMVTVAS VL: SYVLTQPPSVSVAPGQTARITCGGNNIGYKNVHWYQQKPGQAPVLVVYDDSDRPSGIPERFSGSNSGNTATLTISRVEAGDEADYYCQVWDHSSDHVVFGGGTKLTVL : pKd value = 7.72
